# system: human cannabinoid receptor type 2 (Homo sapiens)
# Construct: expressed in transfected cells; membrane preparation
# assay overview: Human CB2 Radioligand Binding Assay
# study conditions: competition with [3H] CP-55,940; membranes from stably transfected CHO CB2 cells; read-out: CB2 Ligand Binding Asssay EC50
Exercise: state measured EC50 for each of the molecules provided.

Here's what some known entries look like.
> print(dat)
                                   molecule                                    system  observed.result
1  Clc1ccc(-c2nc(N3CCCCC3)c3ccccc3n2)c(Cl)c1  human cannabinoid receptor type 2 (Homo sapiens)        < 1000 nM
2  COc1ccc(CNC(=O)c2ccc3c(N4CCN(C(C)=O)CC4)nc(-c4ccccc4Cl)nc3c2)cc1  human cannabinoid receptor type 2 (Homo sapiens)        > 1000 nM
3  CCOC(=O)N1CCN(c2nc(-c3ccccc3Cl)nc3ccc(OC)cc23)CC1  human cannabinoid receptor type 2 (Homo sapiens)        < 1000 nM
4   COc1ccc2nc(C3CCCCC3)nc(N3CCN(C)CC3)c2c1  human cannabinoid receptor type 2 (Homo sapiens)        < 1000 nM
5  CN(c1ccc(C(C)(C)C)cc1)c1nc(-c2ccccc2Cl)nc2ccccc12  human cannabinoid receptor type 2 (Homo sapiens)        > 1000 nM
6  COc1cc2nc(Oc3ccc(C(C)(C)C)cc3)nc(N3CCCC3)c2cc1OC  human cannabinoid receptor type 2 (Homo sapiens)        > 1000 nM
7    Clc1ccccc1-c1nc(NCCc2ccccn2)c2ccccc2n1  human cannabinoid receptor type 2 (Homo sapiens)        > 1000 nM
8  Clc1ccc(-c2nc(NCc3ccccc3)c3ccccc3n2)c(Cl)c1  human cannabinoid receptor type 2 (Homo sapiens)        > 1000 nM

Please give EC50 for each item listed below.
1. CCOC(=O)N1CCN(c2nc(Nc3ccccc3)nc3cc(C(C)(C)C)ccc23)CC1
2. CCN1[C@H](C)CN(c2nc(-c3ccccc3Cl)nc3ccccc23)C[C@@H]1C

**A:**
["< 1000 nM", "< 1000 nM"]

Please give EC50 for each item listed below.
1. O=C(N1CCN(c2nc(-c3ccccc3Cl)nc3ccccc23)CC1)C(F)(F)F
2. CN1CCN(c2nc(-c3ccc(OC(F)(F)F)cc3)nc3ccccc23)CC1
3. c1ccc2c(N3CCCCC3)nc(C3CCCC3)nc2c1

**A:**
1. < 1000 nM
2. < 1000 nM
3. > 1000 nM

* * *

# system: human cannabinoid receptor type 2 (Homo sapiens, UniProt P34972)
# Construct: expressed in transfected cells; membrane preparation
# Sequence (P34972 whole entry): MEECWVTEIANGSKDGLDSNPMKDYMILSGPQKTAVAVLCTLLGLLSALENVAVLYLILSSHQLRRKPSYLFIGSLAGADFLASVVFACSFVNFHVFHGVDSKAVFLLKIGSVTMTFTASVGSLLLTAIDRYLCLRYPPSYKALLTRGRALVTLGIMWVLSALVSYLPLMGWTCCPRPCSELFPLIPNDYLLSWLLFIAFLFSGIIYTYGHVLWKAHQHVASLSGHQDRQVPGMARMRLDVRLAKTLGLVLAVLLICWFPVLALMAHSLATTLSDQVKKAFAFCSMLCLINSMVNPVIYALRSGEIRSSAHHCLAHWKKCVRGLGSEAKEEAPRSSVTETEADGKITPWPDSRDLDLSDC
# assay overview: Human CB2 Radioligand Binding Assay
# study conditions: competition with [3H] CP-55,940; membranes from stably transfected CHO CB2 cells; read-out: CB2 Ligand Binding Asssay EC50
pEC50: −log10 of the molar value.
parameter measured: pEC50

Here's what some known entries look like.
> print(dat)
                                 mol.smiles  parameter.measured  observed.result
1  CCOC(=O)N1CCN(c2nc(Cc3cccc4ccccc34)nc3ccccc23)CC1               pEC50           > 6.00
2  CN1CCN(c2nc(-c3ccc(Cl)cc3)nc3ccc(Cl)cc23)CC1               pEC50           < 6.00
3     Fc1ccc2nc(-c3ccccc3Cl)nc(N3CCCC3)c2c1               pEC50           < 6.00
4  COc1cc2nc(Nc3ccc(C(C)(C)C)cc3)nc(N3CCCC3)c2cc1OC               pEC50           < 6.00
5     Cc1cccc2nc(-c3ccccc3Cl)nc(N3CCCC3)c12               pEC50           > 6.00

Please give pEC50 for each item listed below.
1. CN1CCN(c2nc(C3CCCCC3)nc3ccc(Cl)cc23)CC1
2. CC(=O)N1CCN(c2nc(-c3ccccc3Cl)nc3cc(C(=O)N4CCCCC4)ccc23)CC1
3. CN(CCCn1ccnc1)c1nc(-c2ccccc2Cl)nc2ccccc12
4. CCNC(=O)N1CCN(c2nc(-c3ccccc3Cl)nc3ccccc23)CC1
5. Cc1ccccc1-c1nc(N2CCN(C)CC2)c2ccccc2n1
6. CCOc1ccc(Nc2nc(-c3ccccc3Cl)nc3ccccc23)cc1
7. COc1ccc2nc(C3CCCCC3)nc(N3CCN(C(C)=O)CC3)c2c1
8. CC(C)c1nc(N2CCCC2)c2ccccc2n1

**A:**
["> 6.00", "< 6.00", "< 6.00", "< 6.00", "> 6.00", "< 6.00", "> 6.00", "< 6.00"]
